molecular target: T1, human LILRB1 recombinant protein (human, UniProt Q8NHL6 24-461); assay: ELISA, B cell supernatant
T1 construct: The ELISA method says only 'LILRB1 recombinant proteins' coated on plates; also called leukocyte immunoglobulin-like receptor subfamily B member 1
T1 sequence (Q8NHL6 24-461 limits assumed): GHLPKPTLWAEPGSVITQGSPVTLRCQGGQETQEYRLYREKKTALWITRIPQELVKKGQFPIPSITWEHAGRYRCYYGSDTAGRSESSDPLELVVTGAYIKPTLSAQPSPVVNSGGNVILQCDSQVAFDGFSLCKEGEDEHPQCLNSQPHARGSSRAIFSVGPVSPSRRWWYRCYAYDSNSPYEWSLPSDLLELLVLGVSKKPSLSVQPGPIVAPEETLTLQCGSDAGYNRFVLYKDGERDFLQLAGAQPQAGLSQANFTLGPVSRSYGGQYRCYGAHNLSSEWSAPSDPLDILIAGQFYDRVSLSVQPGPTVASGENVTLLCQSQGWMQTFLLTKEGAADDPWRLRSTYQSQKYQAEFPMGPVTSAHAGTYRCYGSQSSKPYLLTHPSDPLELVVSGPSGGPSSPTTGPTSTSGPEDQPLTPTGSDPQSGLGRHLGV
The entries below are paired with their reported OD450.

**Query** Sample mAb of B cell clone 185 (supernatant) (antibody, V domains shown, rabbit) VH: SQQLKESGGGLVKPGGTLTLTCKASGIDFNNDYNICWVRQPPGKGLEWIGCIYTGSDSTDYASWVNGRFTISESTSLNTVDLKVTSLTDADTATYFCARDLVTGYATYGYGFILWGPGTLVTVSS VL: ELVLTQTPSSKSVAVGDTVTINCQASDNVYSNNYTSWFQQKPGQPPKQLLYYAAYRASGVPSRFKGSGSGTEFTLSISDVVCDDAATYYCSGHKDYSDDGSTFGGGTEVEIK — what was its OD450?
**Result** 1.67 OD450

Continue with the next binder.
**Query** Sample mAb of B cell clone 38 (supernatant) (antibody, V domains shown, rabbit; also called B1-#38) VH: EQSVEESEGGLVQPEGSLTLTCTASGFSFSNDYWICWVRQAPGKGLEWIGCGHIGSFRTTYYASWAKGRFSISKTSSTTVTLQMTSLTGADTATYFCARSPYDDGYGGFTFNLWGPGTLVTISS VL: ELDMTQTPSSVEAAVGGTVTVKCQVSQSIGNAIAWYQQKPGQPPKLLIYKASTLASGVPSRFKGSGSGTEFTLTISDLECADAATYYCQNYYYSNTNSFGGGTEVVVK — what was its OD450?
**Result** 2.32 OD450
